Target: 5HT2C receptors (Homo sapiens)
Sequence (P28335 33-458): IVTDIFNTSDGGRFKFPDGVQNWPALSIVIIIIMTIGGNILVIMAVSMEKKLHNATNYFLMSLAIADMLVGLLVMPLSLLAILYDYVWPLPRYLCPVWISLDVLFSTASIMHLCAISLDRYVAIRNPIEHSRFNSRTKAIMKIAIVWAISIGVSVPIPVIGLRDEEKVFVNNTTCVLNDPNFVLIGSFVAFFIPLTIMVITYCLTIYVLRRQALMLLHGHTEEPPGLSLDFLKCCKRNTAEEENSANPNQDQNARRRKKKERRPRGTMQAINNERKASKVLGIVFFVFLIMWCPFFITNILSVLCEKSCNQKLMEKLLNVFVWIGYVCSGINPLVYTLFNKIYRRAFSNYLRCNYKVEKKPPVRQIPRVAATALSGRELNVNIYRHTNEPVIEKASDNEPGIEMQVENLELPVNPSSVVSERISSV
Test: Human 5-HT2C functional high throughput screening assay in CHO-K1 cells (calcium flux)
Type: cell-based
Design: expressed in transfected cells; host or cells: CHO-K1 cells
Details: CHO-K1; 5-HT2C; maximum functional response as percentage relative to the effect of serotonin; read-out: Emax
measured.metric: Emax (%)

The reported value for O=S(=O)(c1ccccc1C(F)(F)F)N1Cc2cccnc2[C@@H]2CNC[C@H]2C1 (relative stereo) in terms of Emax is 80

Reported Emax ( C[C@@H](Cc1ccccc1)Oc1ccc2c(c1)C(=O)NC[C@@H]1CN(Cc3ccccc3)C[C@@H]21 (mixture of isomers) ) = 110

----------
Molecular target: 5HT2C receptors (Homo sapiens, UniProt P28335)
Sequence (P28335 33-458): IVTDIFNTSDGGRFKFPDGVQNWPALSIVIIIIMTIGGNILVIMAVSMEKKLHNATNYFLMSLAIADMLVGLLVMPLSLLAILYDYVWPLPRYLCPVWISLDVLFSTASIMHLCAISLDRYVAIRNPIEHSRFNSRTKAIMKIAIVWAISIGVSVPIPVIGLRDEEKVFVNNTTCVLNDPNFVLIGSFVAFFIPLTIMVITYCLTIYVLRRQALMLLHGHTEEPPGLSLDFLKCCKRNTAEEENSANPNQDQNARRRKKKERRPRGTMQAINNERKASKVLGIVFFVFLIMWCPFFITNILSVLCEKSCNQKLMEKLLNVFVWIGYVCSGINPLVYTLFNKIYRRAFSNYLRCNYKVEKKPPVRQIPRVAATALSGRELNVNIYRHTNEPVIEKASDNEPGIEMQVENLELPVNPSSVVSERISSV
Experiment: Human 5-HT2C functional assay in 1321N1 cells (intracellular calcium, FLIPR)
Type: cell-based
Set-up: expressed in transfected cells; host or cells: 1321N1 cells
Conditions: 5-HT2c agonist activity, maximum calcium response
pEC50: −log10 of the molar value.
measured.metric: pEC50

Example cases with answers are listed next.
Quick note, pEC50 for O=C1NC[C@@H]2CN(Cc3ccccc3)C[C@H]2c2ccc(Cl)cc21 (relative stereo) [Example 45] landed at 8.23

Field pEC50 (entry CN1C[C@H]2CNC(=O)c3ccccc3[C@@H]2C1 (relative stereo) [Example 69] ) reads 8.06

a = O=C1NC[C@@H]2CN(Cc3cc(Cl)cc(Cl)c3)C[C@H]2c2ccccc21 (relative stereo) [Example 30]
b = Cc1ccc(CN2C[C@H]3CNC(=O)c4ccccc4[C@@H]3C2)c(C)c1 (relative stereo) [Example 24]
// which entry reports the smaller pEC50, a or b ? Please indicate the selected item by its label.
b
